Below, each entry is listed with its recorded phosphorylation enrichment.
experimental_target: EPHB2 (UniProt P29323)
Sequence (P29323 whole entry, looked up): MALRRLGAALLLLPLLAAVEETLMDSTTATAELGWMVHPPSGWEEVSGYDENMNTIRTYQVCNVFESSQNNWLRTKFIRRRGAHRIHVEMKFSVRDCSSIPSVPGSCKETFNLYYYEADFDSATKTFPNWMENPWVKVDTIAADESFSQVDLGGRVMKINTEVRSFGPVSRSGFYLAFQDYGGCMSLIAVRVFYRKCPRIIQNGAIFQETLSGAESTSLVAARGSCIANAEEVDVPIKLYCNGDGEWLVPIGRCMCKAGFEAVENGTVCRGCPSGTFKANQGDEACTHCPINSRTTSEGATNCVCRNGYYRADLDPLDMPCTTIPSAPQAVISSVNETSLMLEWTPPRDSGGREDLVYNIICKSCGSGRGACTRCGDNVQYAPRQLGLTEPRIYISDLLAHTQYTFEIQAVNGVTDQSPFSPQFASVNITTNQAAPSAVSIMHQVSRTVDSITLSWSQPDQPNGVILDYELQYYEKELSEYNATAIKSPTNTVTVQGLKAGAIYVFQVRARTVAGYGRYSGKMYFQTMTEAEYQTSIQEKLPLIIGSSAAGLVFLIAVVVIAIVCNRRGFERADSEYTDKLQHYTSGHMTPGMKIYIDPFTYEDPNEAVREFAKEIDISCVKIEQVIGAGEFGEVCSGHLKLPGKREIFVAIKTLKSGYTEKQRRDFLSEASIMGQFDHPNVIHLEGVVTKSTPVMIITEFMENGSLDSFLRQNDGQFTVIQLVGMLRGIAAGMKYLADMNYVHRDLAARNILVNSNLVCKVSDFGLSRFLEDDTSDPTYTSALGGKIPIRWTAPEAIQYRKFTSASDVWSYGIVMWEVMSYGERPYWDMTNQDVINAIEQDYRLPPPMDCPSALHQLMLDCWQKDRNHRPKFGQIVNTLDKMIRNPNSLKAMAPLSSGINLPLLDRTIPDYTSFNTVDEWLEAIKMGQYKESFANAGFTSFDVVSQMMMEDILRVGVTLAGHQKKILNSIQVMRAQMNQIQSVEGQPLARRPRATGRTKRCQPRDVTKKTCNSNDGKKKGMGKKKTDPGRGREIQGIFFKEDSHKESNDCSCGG
procedure_summary: phosphorylation enrichment, bacterial display (enrichment ratio); higher = better substrate or ligand; peptides without Tyr show the background;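 further: 11-residue human phosphosite peptides and single-mutation variants displayed on the E. coli surface, counted by deep sequencing, each peptide's frequency after selection divided by its frequency in the unselected input library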;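 further: frequency after pTyr selection over input frequency; kinase dosed for 20-30% of maximal phosphorylation in three min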
// response body must contain only the number

Recorded phosphorylation enrichment, per entry:
| sequence_content | phosphorylation enrichment |
| --- | --- |
| LMVFEYMRHGD [NTRK1_Y591] | 0.847 |
| KRIKSYNQEND [RPGRIP1L_Y448_L447S] | 0.341 |
| KDHLDYKYQPR [SOX9_Y172_P170L] | 0.448 |
| YCRITYDIFPF [INTS13_Y67_M66T] | 3.79 |
| YLNSSYINIST [IL23R_Y178_T175N] | 0.453 |
| IEDPYYGNDFD [ACP1_Y133_S137F] | 0.859 |

Ask: So what phosphorylation enrichment did FSTPPYLLEAA [BRIP1_Y921_S919P_YF] get with EPHB2 (UniProt P29323)?
Result: 0.601

Ask: Form: Entry = LTYHMYADPNF [SOS1_Y618] | System = EPHB2 (UniProt P29323) | phosphorylation enrichment = ____
Result: 6.29

Ask: Param readout = phosphorylation enrichment; param system = EPHB2 (UniProt P29323); param query = GKSFTYAAFHA [KCNT1_Y563] ; response: value
Result: 0.613

Ask: Recall the recorded phosphorylation enrichment for TVLWWYTGTRP [UGT1A1_Y337_R336W] with EPHB2 (UniProt P29323) and state it.
Result: 0.513

Ask: Record lookup: for EPHB2 (UniProt P29323), what phosphorylation enrichment belongs to AEVDTYCRHNF [HLA-DRB1_Y107_A103E_YF] ?
Result: 0.556

Ask: Look up phosphorylation enrichment with EPHB2 (UniProt P29323) for this sequence: MGGSVYFSFPD [HIKESHI_Y55_YF]
Result: 0.991

Ask: Item DDDPEDRKFLE [UPF3B_Y160_Y160D] with EPHB2 (UniProt P29323) - phosphorylation enrichment?
Result: 0.501

---

Tested on: AncSZ
procedure_summary: phosphorylation enrichment, bacterial display (enrichment ratio); higher = better substrate or ligand; peptides without Tyr show the background
Listing of entries alongside the reported phosphorylation enrichment.
Output spec: single numeric token, no unit.

Example sequences with recorded phosphorylation enrichment:
| sequence_content | phosphorylation enrichment |
| --- | --- |
| QDLLLYQTHSE [PKHD1_Y255_F253L] | 1.86 |
| VREIRYQGGNR [VWF_Y1570] | 0.597 |
| AHADEYGAEAL [HBA1_Y25_G23D] | 0.97 |
| DLDLTYIYPNI [PTEN_Y27] | 3.91 |
| SGPRCYTIAAL [TTR_Y125_R124C] | 0.617 |
| VAHAVYQAVLS [SMG1_Y549] | 0.899 |
| KLVQLYGVCTK [BTK_Y461] | 0.848 |
| MVTSGYKAKMI [EFR3A_Y447_T451M] | 0.563 |

Ask: Notebook entry, AncSZ assay: phosphorylation enrichment of EHFSFYGMKAV [SLC15A2_Y61_R57H_YF] = ?
Result: 0.868

Ask: Lookup: phosphorylation enrichment / AncSZ / HTLMKYTDGDQ [PUS7L_Y94_I92M]
Result: 1.34

Ask: Request - read-out phosphorylation enrichment | tested on AncSZ | sequence RLEKEYFDQHF [NPC1_Y394]
Result: 1.13

Ask: Item: KKGMIYGGGGG [PSME1_Y249_T244K] Test system: AncSZ Read-out: phosphorylation enrichment Value: ?
Result: 0.467

Ask: Form field - read-out: phosphorylation enrichment; system: AncSZ; submitted item: VFGEEYEEQPR [ZMYM2_Y1033]
Result: 1.39

Ask: Can you look up phosphorylation enrichment on AncSZ for FHKALYTVRTF [PDE6C_Y266_S270T_YF] ?
Result: 0.914

Taken from the supplement of paper PMC10065799.
